target: Δ49N-hChoKα (Homo sapiens); construct: cDNA fragment 362-1534, corresponding to aminoacids 50 457; GST (N, cleaved yes); PreScission Protease recognition site (N); made in house; host or cells: Escherichia coli BL21pLysS (DE3); assay: Biochemical kinase inhibition assay (Kinase-Glo luminescent) on Δ49N-hChoKα; details: recombinant Δ49N-hChoKα 2.2 nM, ATP 5 μM, choline 5 μM, 60 min rt; read-out: ChoKα IC50
Sequence (P35790 50-439 isoform P35790-2): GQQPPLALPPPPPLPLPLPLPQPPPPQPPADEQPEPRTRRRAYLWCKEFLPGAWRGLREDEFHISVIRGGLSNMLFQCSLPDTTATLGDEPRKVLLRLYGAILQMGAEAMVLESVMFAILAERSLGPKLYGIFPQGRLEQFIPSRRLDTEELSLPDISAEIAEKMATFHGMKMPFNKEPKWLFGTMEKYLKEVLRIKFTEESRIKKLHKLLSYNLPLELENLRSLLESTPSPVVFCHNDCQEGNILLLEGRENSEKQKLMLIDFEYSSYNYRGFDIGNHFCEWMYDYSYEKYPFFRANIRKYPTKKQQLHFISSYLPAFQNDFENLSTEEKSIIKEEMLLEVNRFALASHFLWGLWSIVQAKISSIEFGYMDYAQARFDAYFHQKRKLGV
This section presents molecules with their documented IC50 values.
Hi! Could you send only the number? It should be in nM, unit omitted.

>  <molecule>
CC1(C)CCC(N2CCC(OCc3csc(NC(=O)c4n[nH]c5c4C(C)(C)Cc4cnc(N)nc4-5)n3)CC2)CC1 [compound 190]

>  <system>
Δ49N-hChoKα (Homo sapiens)

>  <IC50, nM>
8

$$$$
>  <molecule>
CC1(C)Cc2cnc(N)nc2-c2[nH]nc(C(=O)Nc3nc(COC4CCN(C5CCCCCC5)CC4)cs3)c21 [compound 223]

>  <system>
Δ49N-hChoKα (Homo sapiens)

>  <IC50, nM>
4

$$$$
>  <molecule>
CC1CCN(C2CCN(C(=O)Cc3csc(NC(=O)c4nn(C)c5c4C(C)(C)Cc4cnc(N)nc4-5)n3)CC2)CC1

>  <system>
Δ49N-hChoKα (Homo sapiens)

>  <IC50, nM>
5

$$$$
>  <molecule>
CC1CCN(C2CCN(C(=O)C(F)(F)c3csc(NC(=O)c4n[nH]c5c4C(C)(C)Cc4cnc(N)nc4-5)n3)CC2)CC1

>  <system>
Δ49N-hChoKα (Homo sapiens)

>  <IC50, nM>
7

$$$$

Ask: For Cc1csc(NC(=O)c2nn(C)c3c2C(C)(C)Cc2cnc(N)nc2-3)n1 , what is its reported IC50?
Result: 629

Ask: Please look up its IC50: CC1(C)Cc2cnc(N)nc2-c2[nH]nc(C(=O)Nc3nc(CC(=O)N4CCC(N5CCCCCC5)CC4)cs3)c21
Result: 2

Ask: # input molecule: CC1(C)Cc2cnc(N)nc2-c2[nH]nc(C(=O)Nc3nc(CC(=O)N4CCC(N5CCCC(F)(F)C5)CC4)cs3)c21 ; wanted: its IC50
Result: 10

---

molecular target: hChoKβ FL (Homo sapiens, UniProt Q9Y259); construct: hChoKβ full length (FL), corresponding to aminoacids 2-395; GST (N, cleaved yes); PreScission Protease recognition site (N); made in house; host or cells: Escherichia coli BL21pLysS (DE3); assay: Biochemical kinase inhibition assay (Kinase-Glo luminescent) on hChoKβ FL; details: recombinant hChoKβ FL 30 nM, ATP 5 μM, choline 20 μM, 60 min rt; read-out: ChoKβ IC50
Sequence (Q9Y259 2-395): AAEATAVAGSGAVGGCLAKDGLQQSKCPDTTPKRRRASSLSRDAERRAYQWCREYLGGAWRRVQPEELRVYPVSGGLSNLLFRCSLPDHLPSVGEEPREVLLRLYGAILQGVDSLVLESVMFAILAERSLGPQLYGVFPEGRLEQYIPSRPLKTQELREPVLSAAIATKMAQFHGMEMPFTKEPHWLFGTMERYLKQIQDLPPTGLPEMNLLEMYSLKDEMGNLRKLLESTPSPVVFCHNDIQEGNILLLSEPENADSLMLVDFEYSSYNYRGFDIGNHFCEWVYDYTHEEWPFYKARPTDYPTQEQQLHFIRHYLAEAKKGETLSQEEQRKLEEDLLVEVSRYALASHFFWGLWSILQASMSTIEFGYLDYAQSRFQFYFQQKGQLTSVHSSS
observation-type: IC50 (nM)
// units = nM; emit number, no label

Ask: Sample CC1(C)Cc2cnc(N)nc2-c2[nH]nc(C(=O)Nc3cccc(C=O)c3)c21 — what was its IC50?
Result: 2680

Ask: Any idea what IC50 was measured for CN(C)C1CCN(Cc2ccc(NC(=O)c3n[nH]c4c3C(C)(C)Cc3cnc(N)nc3-4)cc2)CC1 ?
Result: 72

Ask: I am curious: what IC50 value has been reported for CN(C)[C@@H]1CCN(C(=O)Cc2cccc(NC(=O)c3n[nH]c4c3C(C)(C)Cc3cnc(N)nc3-4)c2)C1 ?
Result: 671
